test system: human SMAD7 mRNA; experiment: Antisense inhibition of human SMAD7 mRNA expression in Hep3B cells by 3-10-3 cEt gapmers, 10,000 nM, electroporation (Example 2); assay type: cell-based; conditions: Hep3B cells, electroporation with 10,000 nM antisense oligonucleotide, approximately 24 hours, RTS5062, percent inhibition of SMAD7 mRNA relative to untreated control cells
Strand notation (5' to 3'): a small letter for the sugar, then the base; units joined by * are phosphorothioate-linked, units joined directly phosphodiester-linked; [ ] holds rarer units or linkages, { } end groups; capitals alone tell only the bases. k = constrained ethyl (cEt); [5mC] = 5-methylcytosine; d = 2'-deoxy (DNA)
Attribute: % Inhibition
Dear colleague, please send the value followed by its unit.

SUBSTANCE	OUTCOME MEASURE	ASSAY RESULT
799665 (antisense kG*kA*kT*dG*d[5mC]*d[5mC]*dA*dG*d[5mC]*dA*dA*dG*dG*kA*kT*k[5mC]) [compound 799665]	% Inhibition	57%
799604 (k[5mC]*kA*kT*d[5mC]*dA*d[5mC]*d[5mC]*dT*d[5mC]*d[5mC]*d[5mC]*d[5mC]*dT*k[5mC]*k[5mC]*kA; antisense) [compound 799604]	% Inhibition	0%
799743 (antisense k[5mC]*kT*kG*dG*dA*dG*dT*dT*dA*dT*dT*d[5mC]*dT*k[5mC]*kA*kA) [compound 799743]	% Inhibition	51%
799725 (antisense kG*kG*k[5mC]*d[5mC]*dA*d[5mC]*dT*dG*d[5mC]*dA*dG*d[5mC]*d[5mC]*k[5mC]*kT*kA) [compound 799725]	% Inhibition	0%
799526 (kA*kA*kG*dG*dA*dG*dG*dT*dT*dT*dG*dG*dG*kT*kT*kG; antisense) [compound 799526]	% Inhibition	12%

With those in mind, consider the next substance.
Reported % Inhibition, substance 799544 (kT*kT*k[5mC]*dA*dA*d[5mC]*dA*dA*dG*dT*dT*d[5mC]*d[5mC]*k[5mC]*kT*kA; antisense) [compound 799544] : ____ 72%
